- measurement_notes: yeast display, Sf9 membrane polyspecificity reagent, FACS + sequencing; frameworks hold sequencing errors
experimental_readout: polyreactivity (PSR sort gate)

Answered cases to consult:
[
  {
    "seq_text": "QVQLVESGGGLVQAGGSLRLSCAASGSTLKSYVMGWYRQAPGKERELVARISRSGGSTYYADSVKGRFTISRDNAKNTVYLQMNSLKPEDTAVYYCAAATPRLSYDYWGQGTQVTVSS",
    "polyreactivity (PSR sort gate)": "high polyreactivity"
  },
  {
    "seq_text": "QVQLVESGGGLVQAGGSLRLSCAASGSTFLGYDMGWYRQAPGKERELVAAISIGGSTYYADSVKGRFTISRDNAKNTVYLQMNSLKPEDTAVYYCARVTWGHQVIYGLSDYDSWGQGTQVTVSS",
    "polyreactivity (PSR sort gate)": "low polyreactivity"
  },
  {
    "seq_text": "QGQLVESGGGIVQAGGSLRLSCAASGFNFWQYAMGLYRQAPGKERELVAAITSSGTSTYYADSVKGLFTISRDNAKNTVYLQMNSLKPEDTAVYSCAADLGYYDLYYWGQGTQVTVSS",
    "polyreactivity (PSR sort gate)": "low polyreactivity"
  },
  {
    "seq_text": "QVQQQESGGGLVKAGGSLRLSCAASGNNSPRDAMGWYRQAPGEERDLVASNAYSAITYYADGVKGRYTISRDNAKNTVYLQMNSLKPEDTEVYYCAVYQFTYPVFPAYWGQGTQVTVSS",
    "polyreactivity (PSR sort gate)": "low polyreactivity"
  },
  {
    "seq_text": "QVQLVESGGGLVQAGGSHRLTCAASGSTFRRYARGWYRQAPGKERELVATISSGRRTNYADSVKGRFTISRDNAKNTVYLQMNSLKPEDTAVYYCAAAYWSSRADTVIKRYYWGQGTQVTVSS",
    "polyreactivity (PSR sort gate)": "high polyreactivity"
  },
  {
    "seq_text": "QVQLVESGGGLVQAGGSLRLSCAASGRTFYPYAMGWYRQAPGKERELVASINWSGASTYYADSVKGRFTISRDNAKNTVYLQMNSLKPEDTAVYYCAAYITYLSSRFWYGYWGQGTQVTVSS",
    "polyreactivity (PSR sort gate)": "high polyreactivity"
  }
]

Exercise: Fill in: polyreactivity (PSR sort gate) of QVQLVESGGGLVQAGGRLRLSCAASGNTFDYYAMGWYRPAPGKERELVAAITRGGSTNYADSVKGRFTISRDNAKNTVYLQMNSLKPEDTAVYYCAAEQRAPRFADYDYWGQGTQVTVSS is ___
Key: low polyreactivity

Exercise: What would you report for QVQLVESGGGLVQAGGSLRLSCSASGSTFTYYAIGWYRTAPGEERELGAAISWRGTSTYYADSVKGRFTISRDNAKNSVYLQMNSLKTEETAVYSCAGRGLWPYDYWGQGTQVTVSS ?
Key: low polyreactivity

Exercise: What would you report for QVQLVESGGGLVQAGGSLRLSCAASGRIFHYNDMGWYRQAPWKERELVAAISTGGSTNYADSVKGRFTISRDNAKNTVYLQMNSLKPEDTAVYYCAADHPGTYPTTKFDYWGQGTQVTVSS ?
Key: low polyreactivity

Exercise: What would you report for QVQLVESGGGLVQAGGSLRLSCAASGFIFRFNAMGWYIQAPGKSRELVAAISWSGSSTYYADSVKGRFTISRDNAKNTVYLQMTSLKPEDTAVYYCATSSLYYTIVKGDFYYWGQGTQVTVSS ?
Key: high polyreactivity

Exercise: What would you report for QVQLVESGGGLVQAGGSLRLSCAASGRTFYWYTMGWYRQATGKERELVAAISIGGITSYADSVKGRFTISRDNAKNTVYLQMNSLKPEDTAVYYCAAPLSYKNVKYDYWGQGTQVTVSS ?
Key: low polyreactivity

Exercise: What would you report for QVQLVESGGGLVQAGGSLRLSCAASVFTFPPYAMGWSRQAPGKERELVAAISSAGSTKYADSVKGRFTISRDNAKNTVYLQMNSLKPEDTAVYYCAARWARSYDYWGQGTQVTVSS ?
Key: low polyreactivity

Exercise: What would you report for QDQLVESGGGLVQAGGSLRLSCADSGITFSVYAMGWYRQAPGKERELVAAISWNGGRTYYADSVKGRFTISRDNAKNTVYLQMNSLKPEDTAVYYCAAQPWIFSSRLVWTRGYGYWGQGTQVTVSS ?
Key: high polyreactivity

Exercise: What would you report for QVQLVESGGGLVQAGGSLRLSCAASGFIFYHYAMGWYRQAPGKRRELVAAISYSGGSTYYADSVKGRFTISRDNGKNTVYLQMNSLKPEDPAVYYCNAVYHTRLYTLSTFDYWGQGTQVTVSS ?
Key: high polyreactivity
